test system: acetaminophen-induced hepatotoxicity; test: Protection against acetaminophen-induced hepatotoxicity in mice; format: in vivo; conditions: LD90 acetaminophen 750 mg/kg ip, prodrug 2.45 mmole/kg ip 30 min later, survivors/total
Measurement type: Survival (48 hr) (Number)

Worked set:
{"columns": ["Molecule", "Measurement type", "Result"],
 "data": [
  ["O=C(O)[C@@H]1CSC([C@H](O)CO)N1 (stereo partly drawn)", "Survival (48 hr) (Number)", "3/10"],
  ["O=C(O)[C@@H]1CSC([C@@H](O)[C@@H](O)[C@H](O)CO)N1 (stereo partly drawn)", "Survival (48 hr) (Number)", "3/10"],
  ["O=C(O)[C@@H]1CSC([C@H](O)[C@@H](O)[C@H](O)[C@H](O)CO)N1 (stereo partly drawn)", "Survival (48 hr) (Number)", "3/10"],
  ["O=C(O)[C@@H]1CSC([C@H](O)[C@H](O)[C@H](O)CO)N1 (stereo partly drawn)", "Survival (48 hr) (Number)", "12/12"],
  ["O=C(O)[C@@H]1CSC([C@@H](O)[C@@H](O)[C@H](O)[C@H](O)CO)N1 (stereo partly drawn)", "Survival (48 hr) (Number)", "4/10"]
]}

Prompt: Fill in reported Survival (48 hr) (Number) for this entry: O=C(O)[C@@H]1CSC([C@H](O)[C@@H](O)[C@@H](O)[C@H](O)CO)N1 (stereo partly drawn)
Response: 6/10

Prompt: Specify measured Survival (48 hr) (Number) for O=C(O)[C@@H]1CSC([C@@H](O)[C@H](O)[C@H](O)CO)N1 (mixture of isomers) .
Response: 4/10

Prompt: Report Survival (48 hr) (Number), nothing else, for this molecule: CC(=O)N[C@@H](CS)C(=O)O [NAC, N-Acetyl-L-cysteine, reference compound]
Response: 17/18

Prompt: Return reported Survival (48 hr) (Number). Input molecule: O=C(O)[C@@H]1CSC([C@H](O)[C@@H](O)[C@H](O)CO)N1 (stereo partly drawn)
Response: 6/10

###

system: rat hepatocytes; assay: Inhibitory effect of buthionine sulfoximine (BSO) on GSH elevation elicited by L-cysteine prodrugs in rat hepatocytes; format: cell-based; conditions: rat hepatocytes, BSO 0.2 mM, prodrug 1.0 mM; 240 min
The molecules listed here are annotated with their [GSH] Rel. to Controls.
Could you keep your reply to the number by itself?

Past entries and their recorded results:
{"columns": ["Molecule", "System tested", "[GSH] Rel. to Controls"],
 "data": [
  ["O=C(O)[C@@H]1CSC([C@H](O)[C@H](O)[C@H](O)CO)N1 (stereo partly drawn)", "rat hepatocytes", 0.5],
  ["O=C(O)[C@@H]1CSC([C@@H](O)[C@@H](O)[C@H](O)CO)N1 (stereo partly drawn)", "rat hepatocytes", 0.6]
]}

Okay, next one:
Prompt: Name the recorded [GSH] Rel. to Controls of the item O=C(O)[C@@H]1CSC([C@@H](O)[C@H](O)[C@H](O)CO)N1 (mixture of isomers) in your answer.
Response: 0.6
